Each recorded value in this set is attributed to paper PMC7933320.

Overview of recorded IC50 for various compounds
- target desc: LAG3/FGL1 (Homo sapiens)
- assay procedure: LAG3/FGL1 binding assay (HTRF, Cisbio kit)
Output spec: scalar in µM, unitless text.

• CC(=O)OC1C=CC(C)(O)C(=O)C(C)CC=CC2C(=O)C(C)C(C)C3C(Cc4ccccc4)NC(=O)C123 (stereo not drawn) = 7.45
• C=C1C(C)C2C(Cc3ccccc3)NC(=O)C23C(OC(C)=O)C=CC(C)C(=O)C(C)CC=CC3C1O (stereo not drawn) = 4.39

Could you now consider this next compound?
Ask: Query the reported IC50 for LAG3/FGL1 (Homo sapiens); item: CC(=O)OC1C=CC(C)C(=O)C(C)CC=CC2C=C(C)C(C)C3C(Cc4ccccc4)NC(=O)C213 (stereo not drawn)
Reply: 11.8

----------
- target desc: LAG3/MHC II (Homo sapiens, UniProt P18627)
- assay procedure: LAG3/MHC II binding assay (HTRF, Cisbio kit)
- details: read-out: inhibition rate against LAG3/MHC II
property: inhibition at 50 µM
Put your answer as a value accompanied by its unit after it.

Here's what some known entries look like.
• CC(=O)OC1C=CC(C)(O)C(=O)C(C)CC=CC2C=C(CO)C(C)C3C(Cc4ccccc4)NC(=O)C213 (stereo not drawn) [Compound 5, 12-hydroxyl zygosporin G] = 85.3%
• CC(=O)OC1C=CC(C)(O)C(=O)C(C)CC=CC2C=C(C)C(C)C3C(Cc4ccccc4)NC(=O)C213 (stereo not drawn) = 55.7%
• CC(=O)OC1C=CC(C)C(=O)C(C)CC=CC2C=C(C)C(C)C3C(Cc4ccccc4)NC(=O)C213 (stereo not drawn) = 82.4%
• CC(=O)OC1C=CC(C)(O)C(=O)C(C)CC=CC2C(O)C(C)=C(C)C3C(Cc4ccccc4)NC(=O)C123 (stereo not drawn) = 77.4%
• C=C1C(C)C2C(Cc3ccccc3)NC(=O)C23C(OC(C)=O)C=CC(C)C(=O)C(C)CC=CC3C1O (stereo not drawn) = 82.7%

Ask: Requested read-out inhibition at 50 µM, target or system LAG3/MHC II (Homo sapiens, UniProt P18627), entry CC(=O)OC1C=CC(C)(O)C(=O)C(C)CC=CC2C(=O)C(C)C(C)C3C(Cc4ccccc4)NC(=O)C123 (stereo not drawn)
Reply: 78.9%

----------
- target desc: LAG3/FGL1 (Homo sapiens, UniProt P18627)
- Sequence (P18627 23-450 limits assumed): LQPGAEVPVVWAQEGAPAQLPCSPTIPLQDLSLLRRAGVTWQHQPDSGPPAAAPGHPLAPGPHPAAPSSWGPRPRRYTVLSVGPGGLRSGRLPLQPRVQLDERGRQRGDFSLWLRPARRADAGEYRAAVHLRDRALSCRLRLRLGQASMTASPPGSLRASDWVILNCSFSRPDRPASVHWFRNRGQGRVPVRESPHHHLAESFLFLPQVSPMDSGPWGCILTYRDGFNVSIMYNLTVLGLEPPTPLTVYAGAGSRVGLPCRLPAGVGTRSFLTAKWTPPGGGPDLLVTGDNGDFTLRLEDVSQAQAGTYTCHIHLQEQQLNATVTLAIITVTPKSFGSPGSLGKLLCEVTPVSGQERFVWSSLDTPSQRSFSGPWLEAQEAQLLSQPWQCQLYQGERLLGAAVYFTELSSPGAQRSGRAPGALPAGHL
- assay procedure: LAG3/FGL1 binding assay (HTRF, Cisbio kit)
- details: read-out: inhibition rate against LAG3/FGL1
property: inhibition at 50 µM (%)
Give the number; % is assumed, so skip it.

- CC(=O)OC1C=CC(C)(O)C(=O)C(C)CC=CC2C=C(C)C(C)C3C(Cc4ccccc4)NC(=O)C213 (stereo not shown): 24.9

Please look at the following molecule next.
Ask: inhibition at 50 µM lookup needed for CC(=O)OC1C=CC(C)(O)C(=O)C(C)CC=CC2C=C(CO)C(C)C3C(Cc4ccccc4)NC(=O)C213 (stereo not shown) [Compound 5, 12-hydroxyl zygosporin G] , thanks.
Reply: 79.1

----------
// values below are reported inhibition at 5 µM
- assay procedure: Cytotoxicity by the CCK8 assay
- Type: cell-based
- details: human, AGS cells, read-out: inhibition rate, cytotoxicity against AGS cells
// units = %; emit number, no label

* C=C1[C@@H](C)[C@H]2[C@H](Cc3ccccc3)NC(=O)[C@]23[C@H](OC(C)=O)/C=C/[C@@](C)(O)C(=O)[C@@H](C)C/C=C/[C@H]3[C@@H]1O [Compound 6, cytochalasin D] | 94

Now look at this one.
Ask: Please give the measured inhibition at 5 µM for this molecule: CC(=O)OC1C=CC(C)(O)C(=O)C(C)CC=CC2C(O)C(C)=C(C)C3C(Cc4ccccc4)NC(=O)C123 (centres unmarked) [Compound 9, cytochalasin C]
Reply: 64

----------
Measured IC50 of individual entries
- target desc: LAG3/MHC II (Homo sapiens)
- Sequence (P18627 23-450 limits assumed): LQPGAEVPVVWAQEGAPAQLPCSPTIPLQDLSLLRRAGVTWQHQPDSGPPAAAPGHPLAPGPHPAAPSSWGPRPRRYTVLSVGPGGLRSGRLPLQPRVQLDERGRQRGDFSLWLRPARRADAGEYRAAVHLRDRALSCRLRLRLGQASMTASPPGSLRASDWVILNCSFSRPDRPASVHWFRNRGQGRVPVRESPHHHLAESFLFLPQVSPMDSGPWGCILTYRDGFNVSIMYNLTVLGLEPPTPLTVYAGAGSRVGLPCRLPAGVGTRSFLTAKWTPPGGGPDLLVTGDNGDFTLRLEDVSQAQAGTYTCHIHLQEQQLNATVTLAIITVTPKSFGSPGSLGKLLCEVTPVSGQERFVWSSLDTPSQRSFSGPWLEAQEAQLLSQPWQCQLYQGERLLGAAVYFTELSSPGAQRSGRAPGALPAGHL
- assay procedure: LAG3/MHC II binding assay (HTRF, Cisbio kit)
Numeric answer plus unit only.

Here is how some compounds turned out for IC50.
- C=C1C(C)C2C(Cc3ccccc3)NC(=O)C23C(OC(C)=O)C=CC(C)C(=O)C(C)CC=CC3C1O (stereo not shown): 2370 nM
- CC(=O)OC1C=CC(C)(O)C(=O)C(C)CC=CC2C(=O)C(C)C(C)C3C(Cc4ccccc4)NC(=O)C123 (stereo not shown): 2580 nM
- CC(=O)OC1C=CC(C)C(=O)C(C)CC=CC2C=C(C)C(C)C3C(Cc4ccccc4)NC(=O)C213 (stereo not shown): 4740 nM

Pending compound:
Ask: Consider the compound shown here: CC(=O)OC1C=CC(C)(O)C(=O)C(C)CC=CC2C=C(CO)C(C)C3C(Cc4ccccc4)NC(=O)C213 (stereo not shown) [Compound 5, 12-hydroxyl zygosporin G] What is its recorded IC50?
Reply: 3180 nM

----------
- target desc: LAG3/FGL1 (Homo sapiens, UniProt P18627)
- Sequence (P18627 23-450 limits assumed): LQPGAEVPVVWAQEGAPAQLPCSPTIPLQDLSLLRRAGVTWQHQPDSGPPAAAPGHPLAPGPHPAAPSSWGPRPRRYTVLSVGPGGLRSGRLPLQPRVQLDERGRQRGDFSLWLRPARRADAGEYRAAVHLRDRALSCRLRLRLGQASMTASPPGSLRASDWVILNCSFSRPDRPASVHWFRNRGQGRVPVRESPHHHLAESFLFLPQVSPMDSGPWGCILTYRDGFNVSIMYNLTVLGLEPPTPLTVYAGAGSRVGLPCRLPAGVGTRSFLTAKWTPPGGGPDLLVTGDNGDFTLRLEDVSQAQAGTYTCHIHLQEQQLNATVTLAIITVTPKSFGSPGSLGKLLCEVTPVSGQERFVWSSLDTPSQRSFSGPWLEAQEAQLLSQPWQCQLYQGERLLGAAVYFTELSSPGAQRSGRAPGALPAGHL
- assay procedure: LAG3/FGL1 binding assay (HTRF, Cisbio kit)
- details: read-out: inhibition rate against LAG3/FGL1
property: inhibition at 50 µM (%)
Please state the figure in %; there is no need to write the unit.

- CC(=O)OC1C=CC(C)(O)C(=O)C(C)CC=CC2C(=O)C(C)C(C)C3C(Cc4ccccc4)NC(=O)C123 (centres unmarked) [Compound 8]: 92.5

Ask: Tell me the measured inhibition at 50 µM of CC(=O)OC1C=CC(C)(O)C(=O)C(C)CC=CC2C(O)C(C)=C(C)C3C(Cc4ccccc4)NC(=O)C123 (centres unmarked) [Compound 9, cytochalasin C] , please.
Reply: 58.4

Ask: Entry to check: C=C1[C@@H](C)[C@H]2[C@H](Cc3ccccc3)NC(=O)[C@]23[C@H](OC(C)=O)/C=C/[C@@](C)(O)C(=O)[C@@H](C)C/C=C/[C@H]3[C@@H]1O [Compound 6, cytochalasin D]
Reply: 2.66

Ask: How about this compound: CC(=O)OC1C=CC(C)C(=O)C(C)CC=CC2C=C(C)C(C)C3C(Cc4ccccc4)NC(=O)C213 (centres unmarked) [Compound 1, xylariasin A]
Reply: 83.9

Ask: Then what about the compound C=C1C(C)C2C(Cc3ccccc3)NC(=O)C23C(OC(C)=O)C=CC(C)C(=O)C(C)CC=CC3C1O (centres unmarked) [Compound 7, zygosporin E] ?
Reply: 92.7
